- Target Or Test System: CFTR-G1349D (Homo sapiens, UniProt P13569, G1349D)
- Sequence (P13569 whole entry G1349D): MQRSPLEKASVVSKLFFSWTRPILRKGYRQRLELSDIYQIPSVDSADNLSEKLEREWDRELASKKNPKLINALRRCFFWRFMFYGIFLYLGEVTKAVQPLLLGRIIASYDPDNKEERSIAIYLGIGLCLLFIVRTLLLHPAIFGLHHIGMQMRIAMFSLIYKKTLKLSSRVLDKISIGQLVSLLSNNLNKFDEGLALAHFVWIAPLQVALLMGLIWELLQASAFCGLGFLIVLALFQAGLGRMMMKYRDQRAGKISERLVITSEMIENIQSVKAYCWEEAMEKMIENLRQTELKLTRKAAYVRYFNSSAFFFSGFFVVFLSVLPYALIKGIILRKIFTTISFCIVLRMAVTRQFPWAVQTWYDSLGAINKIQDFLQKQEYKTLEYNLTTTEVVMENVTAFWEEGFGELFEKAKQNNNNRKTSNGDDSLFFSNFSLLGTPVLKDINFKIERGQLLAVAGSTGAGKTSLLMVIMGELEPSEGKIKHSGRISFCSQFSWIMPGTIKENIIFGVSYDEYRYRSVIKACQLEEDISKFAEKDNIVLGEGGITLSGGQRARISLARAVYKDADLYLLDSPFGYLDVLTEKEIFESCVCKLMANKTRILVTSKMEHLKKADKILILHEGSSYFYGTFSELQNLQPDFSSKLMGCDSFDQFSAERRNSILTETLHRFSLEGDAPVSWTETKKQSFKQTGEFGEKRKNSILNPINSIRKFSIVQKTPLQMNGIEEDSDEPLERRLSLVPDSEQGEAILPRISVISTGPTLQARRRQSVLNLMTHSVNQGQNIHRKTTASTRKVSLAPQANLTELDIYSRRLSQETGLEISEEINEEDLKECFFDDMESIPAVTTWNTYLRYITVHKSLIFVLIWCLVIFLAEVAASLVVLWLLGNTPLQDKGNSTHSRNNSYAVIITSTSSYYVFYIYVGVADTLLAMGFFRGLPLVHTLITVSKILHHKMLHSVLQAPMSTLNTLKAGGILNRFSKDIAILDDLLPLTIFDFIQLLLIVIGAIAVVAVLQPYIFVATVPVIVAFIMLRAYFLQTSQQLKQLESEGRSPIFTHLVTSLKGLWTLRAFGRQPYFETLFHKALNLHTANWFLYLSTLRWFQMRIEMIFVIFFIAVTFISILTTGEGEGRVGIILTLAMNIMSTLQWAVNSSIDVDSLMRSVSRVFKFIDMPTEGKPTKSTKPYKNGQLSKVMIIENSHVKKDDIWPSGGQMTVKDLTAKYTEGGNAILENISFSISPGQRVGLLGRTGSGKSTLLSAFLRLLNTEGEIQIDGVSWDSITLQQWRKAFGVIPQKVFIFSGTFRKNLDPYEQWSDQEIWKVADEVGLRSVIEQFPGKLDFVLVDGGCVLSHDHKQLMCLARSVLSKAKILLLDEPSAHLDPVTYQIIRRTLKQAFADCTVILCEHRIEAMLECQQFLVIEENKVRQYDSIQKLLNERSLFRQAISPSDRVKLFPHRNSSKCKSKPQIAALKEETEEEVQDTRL
- Assay Summary: YFP-halide influx assay for the CFTR-G1349D
- Study Conditions: CFTR-G1349D mutant; read-out: EC50 measured by YFP-halide influx assay for the CFTR-G1349D
Quantity: EC50 (nM)

Answered examples (5):
> print(dat)
                                   compound  test.value
1  CCOCCc1c[nH]nc1C(=O)Nc1sc2c(c1C(N)=O)CC(C)(C)OC2(C)C          64
2  COCc1c[nH]nc1C(=O)Nc1sc2c(c1C(N)=O)CC(C)(C)OC2(C)C         120
3  CC(C)OCCOc1c[nH]nc1C(=O)Nc1sc2c(c1C(N)=O)CC(C)(C)OC2(C)C         888
4  CC1(C)Cc2c(sc(NC(=O)[C@H](O)C(C)(C)C)c2C(N)=O)C(C)(C)O1        1310
5  COCCOc1cc(C(=O)Nc2sc3c(c2C(N)=O)CC(C)(C)OC3(C)C)n[nH]1          74

[A] CC1(C)Cc2c(sc(NC(=O)[C@@H](O)C(C)(C)C)c2C(N)=O)C(C)(C)O1
[B] CC1(C)Cc2c(sc(NC(=O)c3cnco3)c2C(N)=O)C(C)(C)O1
[C] CC(C)C(O)C(=O)Nc1sc2c(c1C(N)=O)CC(C)(C)OC2(C)C (single isomer, unassigned) [Compound 52]
Problem: # sort list by recorded EC50, greatest to least # answer = labels listed in requested order
Solution: B, C, A

[A] CC1(C)Cc2c(sc(NC(=O)c3n[nH]cc3C3=COCCO3)c2C(N)=O)C(C)(C)O1
[B] CC(C)(C)CC(O)C(=O)Nc1sc2c(c1C(N)=O)CC(C)(C)OC2(C)C (stereo not shown) [Compound 106]
[C] CC(C)c1cc(C(=O)Nc2sc3c(c2C(N)=O)CC(C)(C)OC3(C)C)n[nH]1
Problem: # sort list by recorded EC50, greatest to least # answer = labels listed in requested order
Solution: A, C, B

[A] CC(C)(C)CC(O)C(=O)Nc1sc2c(c1C(N)=O)CC(C)(C)OC2(C)C (single isomer, unassigned) [Compound 110]
[B] CC(C)C(O)C(=O)Nc1sc2c(c1C(N)=O)CC(C)(C)OC2(C)C (stereo not shown) [Compound 39]
[C] CC1(C)Cc2c(sc(NC(=O)c3cc(C4CC4)[nH]n3)c2C(N)=O)C(C)(C)O1
[D] CC1(C)Cc2c(sc(NC(=O)c3ccnn3CC(F)(F)F)c2C(N)=O)C(C)(C)O1
[E] COCc1cc(C(=O)Nc2sc3c(c2C(N)=O)CC(C)(C)OC3(C)C)n[nH]1
Problem: # sort list by recorded EC50, greatest to least # answer = labels listed in requested order
Solution: B, E, D, A, C
